Test system: MS2 coat protein
Test: apparent KD of MS2 coat protein; designed switch direction (-1 OFF switch, 1 ON switch): 1; higher = weaker reporter binding
Conditions: input ligand: none
Each entry gets label 0 if its apparent KD of MS2 coat protein stays under 60 nM, and label 1 if its apparent KD of MS2 coat protein is 60 nM or above.

| SEQUENCE STRING | MEASUREMENT TARGET | CLASS |
| --- | --- | --- |
| CGUCGUUUGAUAGGAUAUCGCUAUACAUGAGGAUCACCCAUGUUUACCACGCUGGUUUUUCAUACCGAGAAGGAUUCUGAUGUU [salish99_SSNG02_r04_016] (Eterna round: R96, puzzle: Same State NG 2) | MS2 coat protein | label 0 |
| UGGCUCAGACGAGGAUAUGAUCAUGGCGCUUCGGCGCAUACAUGAGGAUCACCCAUGUAAAGUGAUCAGAAGGUGUCUGAGCCU [SSNG2/7-B3] (Eterna round: R96, puzzle: Same State NG 2) | MS2 coat protein | label 0 |
| CCUUAGUACAAUUUAGAUCUACAUGAGGAUCACCCAUGUACUGAGGAUAUCAGCUCGAAUAGAGCUGAGAAGGCAGAAGUACUU [SSNG3/7-A1] (Eterna round: R96, puzzle: Same State NG 3) | MS2 coat protein | label 1 |
| GGUCGGACAUGAGGAUCACCCAUGUGGUGACCGGAAACGGCAUAGGAUAUCUGUCCGAAAAGGUCAGAGAAGGGUGAACCGACC [Fiskers NG3ss - 69] (Eterna round: R96, puzzle: Same State NG 3) | MS2 coat protein | label 1 |

Say whether AGCCGAGACUGAGGAUAUUUGAAUCUACAUGAGGAUCACCCAUGUAGCAACACGUGGUAGUGAUCGAAGAAGGCAGCUCGGCGC [MOD of Omei's SS(NG)2 Cv2] (Eterna round: R96, puzzle: Same State NG 2) shows apparent KD of MS2 coat protein of 60 nM or more.
label 0
